Where do these numbers come from? They come from ChEMBL document CHEMBL1177762.

Let's look at some compounds and their measured Vd.
Species on record: Rattus norvegicus
Test: Volume of distribution in rat
Assay type: ADME, organism-based
Settings: in vivo
Just the number in L/kg, nothing appended.

Some entries whose results are on file:
O=C(O)c1ccccc1Oc1ncc(Cl)cc1NS(=O)(=O)c1ccc(Cl)c(Cl)c1 ... 0.12
Cc1ncccc1Oc1ncc(Cl)cc1NS(=O)(=O)c1ccc(Cl)c(Cl)c1 ... 0.34
O=S(=O)(Nc1cc(Cl)cnc1Oc1cncc(Cl)c1)c1ccc(Cl)c(Cl)c1 ... 0.2

# input compound: O=C(NCCO)c1ccccc1Oc1ncc(Cl)cc1NS(=O)(=O)c1ccc(Cl)c(Cl)c1 ; wanted: its Vd
0.47

# input compound: O=C(O)c1ccccc1Oc1ccc(Cl)cc1NS(=O)(=O)c1ccc(Cl)c(Cl)c1 ; wanted: its Vd
0.2

----------
Target: C-C chemokine receptor type 1 (Homo sapiens) (UniProt P32246)
Sequence (P32246 whole entry, looked up): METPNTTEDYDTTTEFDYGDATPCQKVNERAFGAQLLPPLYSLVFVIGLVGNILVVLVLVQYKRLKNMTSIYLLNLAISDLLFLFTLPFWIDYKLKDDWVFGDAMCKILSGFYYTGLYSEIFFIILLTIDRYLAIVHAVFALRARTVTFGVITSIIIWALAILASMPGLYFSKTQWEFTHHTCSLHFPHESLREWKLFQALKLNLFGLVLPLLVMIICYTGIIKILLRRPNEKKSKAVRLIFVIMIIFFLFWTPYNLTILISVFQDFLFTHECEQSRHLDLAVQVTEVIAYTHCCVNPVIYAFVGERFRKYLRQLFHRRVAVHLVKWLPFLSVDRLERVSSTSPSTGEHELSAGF
Test: Antagonist activity at human CCR1
Let's look at some molecules and their measured pKi.
The quantity pKi is defined as the negative base-10 logarithm of the molar concentration.

Some entries whose results are on file:
O=C(O)c1ccccc1Oc1ccc(Cl)cc1NS(=O)(=O)c1ccc(Cl)cc1 ... 6.80
O=C(O)c1ccccc1Oc1ccc(F)cc1NS(=O)(=O)c1ccc(Cl)cc1 ... 6.60
O=C(O)c1ccccc1Oc1c(Cl)cccc1NS(=O)(=O)c1ccc(Cl)cc1 ... 6.30

Let's switch to this molecule now.
# input molecule: N#Cc1ccc(Oc2ccccc2C(=O)O)c(NS(=O)(=O)c2ccc(Cl)cc2)c1 ; wanted: its pKi
6.00

----------
Let's look at some compounds and their measured logD.
Assay: Lipophilicity, log D of the compound
Assay type: physicochemical
Settings: octanol/water

Some entries whose results are on file:
Cc1ncccc1Oc1ncc(Cl)cc1NS(=O)(=O)c1ccc(Cl)c(Cl)c1 ... 2.7
O=C(NCCO)c1ccccc1Oc1ncc(Cl)cc1NS(=O)(=O)c1ccc(Cl)c(Cl)c1 ... 2.1
O=C(O)c1cncc(Oc2ncc(Cl)cc2NS(=O)(=O)c2ccc(Cl)c(Cl)c2)c1 ... -0.67

# input compound: O=C(O)c1ccccc1Oc1ncc(Cl)cc1NS(=O)(=O)c1ccc(Cl)c(Cl)c1 ; wanted: its logD
0.8

# input compound: O=C(O)c1cccc(Oc2ncc(Cl)cc2NS(=O)(=O)c2ccc(Cl)c(Cl)c2)c1 ; wanted: its logD
0.44

----------
Let's look at some molecules and their measured half-life.
Assay: Half life in po dosed in rat
Assay type: ADME, organism-based
Settings: in vivo
Just the number in h, nothing appended.

Some entries whose results are on file:
O=C(O)c1ccccc1Oc1ncc(Cl)cc1NS(=O)(=O)c1ccc(Cl)c(Cl)c1 ... 4.5
O=C(O)c1ccccc1Oc1ccc(Cl)cc1NS(=O)(=O)c1ccc(Cl)c(Cl)c1 ... 5.9

Let's switch to this molecule now.
# input molecule: Cc1ncccc1Oc1ncc(Cl)cc1NS(=O)(=O)c1ccc(Cl)c(Cl)c1 ; wanted: its half-life
2.3

----------
Target: C-C chemokine receptor type 2 (Homo sapiens, UniProt P41597)
Assay: Antagonist activity at human CCR2 expressed in CHO cells assessed as inhibition of MCP1-induced [35S]-GTPgammaS binding after 3 hrs
Sequence (P41597 whole entry): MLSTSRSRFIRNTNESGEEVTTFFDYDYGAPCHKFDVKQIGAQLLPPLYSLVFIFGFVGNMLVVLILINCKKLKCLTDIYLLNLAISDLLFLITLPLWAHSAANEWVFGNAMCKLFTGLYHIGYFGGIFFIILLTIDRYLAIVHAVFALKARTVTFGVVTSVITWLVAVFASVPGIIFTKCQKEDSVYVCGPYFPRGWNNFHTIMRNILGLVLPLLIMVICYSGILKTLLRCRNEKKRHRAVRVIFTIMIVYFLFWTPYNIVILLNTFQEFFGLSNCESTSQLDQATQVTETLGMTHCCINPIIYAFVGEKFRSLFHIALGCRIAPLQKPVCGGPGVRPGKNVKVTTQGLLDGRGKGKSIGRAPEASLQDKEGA
Response field class: string, computed from recorded Ki by ranges low = under 20 nM, middle = from 20 nM up to 200 nM, high = 200 nM and over

O=C(O)c1ccccc1Oc1ccc(C(F)(F)F)cc1NS(=O)(=O)c1ccc(Cl)cc1 ... high
CS(=O)(=O)c1ccc(Oc2ccccc2C(=O)O)c(NS(=O)(=O)c2ccc(Cl)cc2)c1 ... high

Determine which band this molecule sits in: CS(=O)(=O)Nc1cc(Cl)ccc1Oc1ccccc1C(=O)O
high

Determine which band this molecule sits in: O=S(=O)(Nc1cc(Cl)cnc1Oc1cncc(Cl)c1)c1ccc(Cl)c(Cl)c1
low

Determine which band this molecule sits in: O=C(O)c1ccccc1Oc1ncc(Cl)cc1NS(=O)(=O)c1ccc(Cl)c(Cl)c1
low

Determine which band this molecule sits in: Cc1ncccc1Oc1ncc(Cl)cc1NS(=O)(=O)c1ccc(Cl)c(Cl)c1
low

Determine which band this molecule sits in: Cc1ncccc1Oc1ncc(C#N)cc1NS(=O)(=O)c1ccc(Cl)c(Cl)c1
middle

Determine which band this molecule sits in: O=C(O)c1ccccc1Oc1cnccc1NS(=O)(=O)c1ccc(Cl)c(Cl)c1
middle

Determine which band this molecule sits in: O=C(O)c1ccccc1Oc1c(F)cc(C(F)(F)F)cc1NS(=O)(=O)c1ccc(Cl)cc1
middle

Determine which band this molecule sits in: Cc1ccc(NS(=O)(=O)c2ccc(Cl)cc2)c(Oc2ccccc2C(=O)O)c1
high

----------
Let's look at some molecules and their measured log10 of Ki.
Biological target: C-C chemokine receptor type 2 (Homo sapiens, UniProt P41597)
Test: Antagonist activity at human CCR2 expressed in CHO cells assessed as inhibition of MCP1-induced [35S]-GTPgammaS binding after 3 hrs
Kindly note that the scale is log10 and the underlying Ki is in nM.

Some entries whose results are on file:
O=C(O)c1c(F)cccc1Oc1ccc(C(F)(F)F)cc1NS(=O)(=O)c1ccc(Cl)cc1 ... 2.10
O=C(O)c1ccccc1Oc1ccccc1NS(=O)(=O)c1ccc(Cl)cc1 ... 2.40
O=C(O)c1ccc(Oc2ncc(Cl)cc2NS(=O)(=O)c2ccc(Cl)c(Cl)c2)cc1 ... 0.50

# input molecule: O=C(O)c1ccccc1Oc1ccc(Cl)cc1NS(=O)(=O)c1ccc(Cl)s1 ; wanted: its log10 of Ki
0.70

# input molecule: O=C(O)c1ccccc1Oc1ncncc1NS(=O)(=O)c1ccc(Cl)c(Cl)c1 ; wanted: its log10 of Ki
2.60

# input molecule: O=C(O)c1ccccc1Oc1ccc(F)cc1NS(=O)(=O)c1ccc(Cl)cc1 ; wanted: its log10 of Ki
1.60

# input molecule: O=C(O)c1c(F)cccc1Oc1ncc(Cl)cc1NS(=O)(=O)c1ccc(Cl)c(Cl)c1 ; wanted: its log10 of Ki
0.30

# input molecule: O=C(O)c1ccccc1Oc1ncccc1NS(=O)(=O)c1ccc(Cl)c(Cl)c1 ; wanted: its log10 of Ki
1.50

----------
Molecular target: C-C chemokine receptor type 2 (Homo sapiens, UniProt P41597)
Assay: Antagonist activity at CCR2 in human THP1 cells assessed as inhibition of CCL2-induced chemotaxis at 1 uM in presence of 0.1% human serum
Format: functional, cell-based
Conditions: THP-1
Sequence (P41597 whole entry, looked up): as the sequence (P41597 whole entry) above
Let's look at some compounds and their measured inhibition.
Just the number in %, nothing appended.

O=C(NCCO)c1ccccc1Oc1ncc(Cl)cc1NS(=O)(=O)c1ccc(Cl)c(Cl)c1 ... 31
O=C(O)c1cncc(Oc2ncc(Cl)cc2NS(=O)(=O)c2ccc(Cl)c(Cl)c2)c1 ... 17
O=C(O)c1ccccc1Oc1ncc(Cl)cc1NS(=O)(=O)c1ccc(Cl)c(Cl)c1 ... 67
Cc1ncccc1Oc1ncc(C#N)cc1NS(=O)(=O)c1ccc(Cl)c(Cl)c1 ... 43

Let's switch to this compound now.
# input compound: O=C(O)c1cccc(Oc2ncc(Cl)cc2NS(=O)(=O)c2ccc(Cl)c(Cl)c2)c1 ; wanted: its inhibition
42

----------
Let's look at some compounds and their measured pKi.
Target: UniProt P51679
Sequence (P51679 whole entry): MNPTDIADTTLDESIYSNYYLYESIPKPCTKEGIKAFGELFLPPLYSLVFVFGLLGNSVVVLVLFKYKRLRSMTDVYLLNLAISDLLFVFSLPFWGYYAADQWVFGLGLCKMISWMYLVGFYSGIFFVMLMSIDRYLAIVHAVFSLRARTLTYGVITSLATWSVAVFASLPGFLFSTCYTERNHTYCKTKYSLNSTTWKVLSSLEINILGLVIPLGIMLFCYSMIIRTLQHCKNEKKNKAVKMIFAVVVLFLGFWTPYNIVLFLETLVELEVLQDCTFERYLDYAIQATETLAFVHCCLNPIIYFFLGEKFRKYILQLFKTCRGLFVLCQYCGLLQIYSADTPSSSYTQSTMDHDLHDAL
Assay: Antagonist activity at CCR4
The quantity pKi is defined as the negative base-10 logarithm of the molar concentration.

Some entries whose results are on file:
Cc1ncccc1Oc1ncc(Cl)cc1NS(=O)(=O)c1ccc(Cl)c(Cl)c1 ... 5.90
O=C(O)c1ccccc1Oc1ccc(Cl)cc1NS(=O)(=O)c1ccc(Cl)c(Cl)c1 ... 6.40
O=C(O)c1ccccc1Oc1ncc(Cl)cc1NS(=O)(=O)c1ccc(Cl)c(Cl)c1 ... 6.10

# input compound: O=C(NCCO)c1ccccc1Oc1ncc(Cl)cc1NS(=O)(=O)c1ccc(Cl)c(Cl)c1 ; wanted: its pKi
5.80

----------
Let's look at some molecules and their measured clearance.
Test: Clearance in rat
Format: ADME, organism-based
Settings: in vivo
Just the number in L/h/kg, nothing appended.

Some entries whose results are on file:
O=C(O)c1ccccc1Oc1ncc(Cl)cc1NS(=O)(=O)c1ccc(Cl)c(Cl)c1 ... 0.0426
O=C(NCCO)c1ccccc1Oc1ncc(Cl)cc1NS(=O)(=O)c1ccc(Cl)c(Cl)c1 ... 0.78
O=C(O)c1ccccc1Oc1ccc(Cl)cc1NS(=O)(=O)c1ccc(Cl)c(Cl)c1 ... 0.036

# input molecule: Cc1ncccc1Oc1ncc(Cl)cc1NS(=O)(=O)c1ccc(Cl)c(Cl)c1 ; wanted: its clearance
0.258

# input molecule: O=S(=O)(Nc1cc(Cl)cnc1Oc1cncc(Cl)c1)c1ccc(Cl)c(Cl)c1 ; wanted: its clearance
0.144

----------
Let's look at some compounds and their measured bioavailability.
Test: Oral bioavailability in rat
Type: ADME, organism-based
Details: in vivo
Just the number in %, nothing appended.

O=S(=O)(Nc1cc(Cl)cnc1Oc1cncc(Cl)c1)c1ccc(Cl)c(Cl)c1 ... 58
O=C(O)c1ccccc1Oc1ccc(Cl)cc1NS(=O)(=O)c1ccc(Cl)c(Cl)c1 ... 70
O=C(NCCO)c1ccccc1Oc1ncc(Cl)cc1NS(=O)(=O)c1ccc(Cl)c(Cl)c1 ... 37
Cc1ncccc1Oc1ncc(Cl)cc1NS(=O)(=O)c1ccc(Cl)c(Cl)c1 ... 75

# input compound: O=C(O)c1ccccc1Oc1ncc(Cl)cc1NS(=O)(=O)c1ccc(Cl)c(Cl)c1 ; wanted: its bioavailability
97
